Biological target: Hepatic sodium/bile acid cotransporter (Mus musculus, UniProt O08705)
Sequence (O08705 whole entry): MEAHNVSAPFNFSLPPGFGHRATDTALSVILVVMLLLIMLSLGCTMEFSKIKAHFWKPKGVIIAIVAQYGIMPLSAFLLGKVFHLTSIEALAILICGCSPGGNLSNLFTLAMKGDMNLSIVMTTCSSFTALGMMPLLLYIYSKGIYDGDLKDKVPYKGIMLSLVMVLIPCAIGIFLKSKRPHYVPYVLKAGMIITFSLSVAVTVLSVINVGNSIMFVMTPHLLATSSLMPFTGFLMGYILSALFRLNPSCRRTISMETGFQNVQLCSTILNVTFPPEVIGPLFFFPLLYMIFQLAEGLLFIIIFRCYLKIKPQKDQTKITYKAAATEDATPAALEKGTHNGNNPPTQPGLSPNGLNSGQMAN
Assay: Inhibition of mouse NTCP-mediated [3H]-TCA uptake expressed in human HepG2 cells
Format: cell-based

>  <Smiles data>
C[C@H](CCC(=O)NCCS(=O)(=O)O)[C@H]1CC[C@H]2[C@@H]3[C@@H](O)C[C@@H]4C[C@H](OCc5cn([C@@H]6CC[C@@]7(C)[C@@H](C6)C[C@H](O)[C@@H]6[C@@H]7CC[C@]7(C)[C@@H]([C@H](C)CCC(=O)NCCS(=O)(=O)O)CC[C@@H]67)nn5)CC[C@]4(C)[C@H]3CC[C@]12C

>  <inhibition (INH)>
Not Active

$$$$
>  <Smiles data>
C[C@H](CCC(=O)NCCS(=O)(=O)O)[C@H]1CC[C@H]2[C@@H]3[C@@H](O)C[C@@H]4C[C@H](NC(=O)CCCC(=O)N[C@@H]5CC[C@@]6(C)[C@@H](C5)C[C@H](O)[C@@H]5[C@@H]6CC[C@]6(C)[C@@H]([C@H](C)CCC(=O)NCCS(=O)(=O)O)CC[C@@H]56)CC[C@]4(C)[C@H]3CC[C@]12C

>  <inhibition (INH)>
Not Active

$$$$
>  <Smiles data>
C[C@H](CCC(=O)O[C@@H]1CC[C@@]2(C)[C@@H](C1)C[C@H](O)[C@@H]1[C@@H]2CC[C@]2(C)[C@@H]([C@H](C)CCC(=O)NCCS(=O)(=O)O)CC[C@@H]12)[C@H]1CC[C@H]2[C@@H]3[C@@H](O)C[C@@H]4C[C@H](O)CC[C@]4(C)[C@H]3CC[C@]12C

>  <inhibition (INH)>
Active

$$$$
>  <Smiles data>
C[C@H](CCCN(CC[C@@H](C)[C@H]1CC[C@H]2[C@@H]3[C@@H](O)C[C@@H]4C[C@H](O)CC[C@]4(C)[C@H]3CC[C@]12C)CCS(=O)(=O)O)[C@H]1CC[C@H]2[C@@H]3[C@@H](O)C[C@@H]4C[C@H](O)CC[C@]4(C)[C@H]3CC[C@]12C

>  <inhibition (INH)>
Active

$$$$

* * *

Tested on: Hepatocyte
Assay: Cytotoxicity against primary tupaia hepatocytes expressing NTCP assessed as reduction in cell viability at 100 uM after 48 hrs by Cell-Titer Glo assay
Format: cell-based
Details: scandentia

>  <Smiles data>
C[C@H](CCC(=O)NCCS(=O)(=O)O)[C@H]1CC[C@H]2[C@@H]3[C@@H](O)C[C@@H]4C[C@H](OC(=O)CCCC(=O)O[C@@H]5CC[C@@]6(C)[C@@H](C5)C[C@H](O)[C@@H]5[C@@H]6CC[C@]6(C)[C@@H]([C@H](C)CCC(=O)NCCS(=O)(=O)O)CC[C@@H]56)CC[C@]4(C)[C@H]3CC[C@]12C

>  <Tested on>
Hepatocyte

>  <Activity>
Non-Toxic

$$$$
>  <Smiles data>
C[C@@H]1CCC(=O)NCCNC(=O)CC[C@@H](C)[C@H]2CC[C@H]3[C@@H]4[C@@H](O)C[C@@H]5C[C@@H](CC[C@]5(C)[C@H]4CC[C@]23C)NC(=O)CCCC(=O)N[C@@H]2CC[C@@]3(C)[C@@H](C2)C[C@H](O)[C@@H]2[C@@H]3CC[C@]3(C)[C@@H]1CC[C@@H]23

>  <Tested on>
Hepatocyte

>  <Activity>
Non-Toxic

$$$$
>  <Smiles data>
C[C@H](CCC(=O)O[C@@H]1CC[C@@]2(C)[C@@H](C1)C[C@H](O)[C@@H]1[C@@H]2CC[C@]2(C)[C@@H]([C@H](C)CCC(=O)NCCS(=O)(=O)O)CC[C@@H]12)[C@H]1CC[C@H]2[C@@H]3[C@@H](O)C[C@@H]4C[C@H](O)CC[C@]4(C)[C@H]3CC[C@]12C

>  <Tested on>
Hepatocyte

>  <Activity>
Non-Toxic

$$$$

* * *

Assay: Bioavailability in ip dosed C57B/L mouse by LC/MS analysis
Type: ADME, organism-based
Conditions: in vivo
Reported property: bioavailability (%)

>  <Compound>
C[C@@H]1CCC(=O)NC(C(=O)NCCS(=O)(=O)O)CNC(=O)CC[C@@H](C)[C@H]2CC[C@H]3[C@@H]4[C@@H](O)C[C@@H]5C[C@@H](CC[C@]5(C)[C@H]4CC[C@]23C)n2cc(nn2)CO[C@@H]2CC[C@@]3(C)[C@@H](C2)C[C@H](O)[C@@H]2[C@@H]3CC[C@]3(C)[C@@H]1CC[C@@H]23 (stereo partly specified)

>  <Reported property>
bioavailability

>  <Measured number>
32

$$$$

* * *

Assay: Plasma protein binding in human
Format: ADME, cell-free
Details: read-out: PPB

>  <Compound>
C[C@@H]1CCC(=O)NC(C(=O)NCCS(=O)(=O)O)CNC(=O)CC[C@@H](C)[C@H]2CC[C@H]3[C@@H]4[C@@H](O)C[C@@H]5C[C@@H](CC[C@]5(C)[C@H]4CC[C@]23C)n2cc(nn2)CO[C@@H]2CC[C@@]3(C)[C@@H](C2)C[C@H](O)[C@@H]2[C@@H]3CC[C@]3(C)[C@@H]1CC[C@@H]23 (stereo partly specified)

>  <fraction unbound>
0.01

$$$$

* * *

Test system: Hepatitis B virus
Test: Antiviral activity against HBV infected in human HepG2-NTCP cells assessed as reduction in HBeAg secretion at 1 uM preincubated with compound followed by viral infection by ELISA
Assay type: functional, organism-based
Active and inactive are the calls of the source. No cut-off for these calls is given here.
Reported property: Activity

>  <Smiles data>
C[C@H](CCC(=O)NCCS(=O)(=O)O)[C@H]1CC[C@H]2[C@@H]3[C@@H](O)C[C@@H]4C[C@H](OCc5cn([C@@H]6CC[C@@]7(C)[C@@H](C6)C[C@H](O)[C@@H]6[C@@H]7CC[C@]7(C)[C@@H]([C@H](C)CCC(=O)NCCS(=O)(=O)O)CC[C@@H]67)nn5)CC[C@]4(C)[C@H]3CC[C@]12C

>  <Result>
Active

$$$$
>  <Smiles data>
C[C@H](CCC(=O)NCCS(=O)(=O)O)[C@H]1CC[C@H]2[C@@H]3[C@@H](O)C[C@@H]4C[C@H](OC(=O)CCCC(=O)O[C@@H]5CC[C@@]6(C)[C@@H](C5)C[C@H](O)[C@@H]5[C@@H]6CC[C@]6(C)[C@@H]([C@H](C)CCC(=O)NCCS(=O)(=O)O)CC[C@@H]56)CC[C@]4(C)[C@H]3CC[C@]12C

>  <Result>
Active

$$$$
>  <Smiles data>
C[C@H](CCC(=O)NCCS(=O)(=O)O)[C@H]1CC[C@H]2[C@@H]3[C@@H](O)C[C@@H]4C[C@H](NC(=O)CCCC(=O)N[C@@H]5CC[C@@]6(C)[C@@H](C5)C[C@H](O)[C@@H]5[C@@H]6CC[C@]6(C)[C@@H]([C@H](C)CCC(=O)NCCS(=O)(=O)O)CC[C@@H]56)CC[C@]4(C)[C@H]3CC[C@]12C

>  <Result>
Active

$$$$

* * *

Biological target: UniProtKB Q9Y6L6
Sequence (Q9Y6L6 whole entry): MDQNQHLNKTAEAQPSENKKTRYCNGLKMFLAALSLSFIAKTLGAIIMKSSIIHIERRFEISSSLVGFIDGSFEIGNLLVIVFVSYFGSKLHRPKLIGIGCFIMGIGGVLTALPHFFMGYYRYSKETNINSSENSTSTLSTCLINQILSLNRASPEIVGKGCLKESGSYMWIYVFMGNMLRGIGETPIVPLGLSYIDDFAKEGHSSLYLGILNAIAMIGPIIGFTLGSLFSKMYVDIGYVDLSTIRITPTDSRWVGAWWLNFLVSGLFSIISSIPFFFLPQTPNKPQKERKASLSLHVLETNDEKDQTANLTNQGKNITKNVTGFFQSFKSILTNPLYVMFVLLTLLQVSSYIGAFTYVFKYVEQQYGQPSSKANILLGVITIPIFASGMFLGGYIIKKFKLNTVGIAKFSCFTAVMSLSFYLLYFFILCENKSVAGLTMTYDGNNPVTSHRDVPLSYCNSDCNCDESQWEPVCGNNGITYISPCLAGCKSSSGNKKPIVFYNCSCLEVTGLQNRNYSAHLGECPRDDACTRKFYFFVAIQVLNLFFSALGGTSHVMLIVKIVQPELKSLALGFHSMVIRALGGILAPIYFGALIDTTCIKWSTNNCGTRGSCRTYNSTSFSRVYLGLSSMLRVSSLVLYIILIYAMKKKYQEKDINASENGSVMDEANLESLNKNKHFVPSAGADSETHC
Assay: Inhibition of human OATP1B1-mediated [3H]-Estrone sulfate uptake expressed in human HepG2 cells at 2 uM
Type: cell-based
Conditions: hepg2, 2 µM
Reported property: inhibition (INH)

>  <Smiles data>
C[C@@H]1CCC(=O)NCCNC(=O)CC[C@@H](C)[C@H]2CC[C@H]3[C@@H]4[C@@H](O)C[C@@H]5C[C@@H](CC[C@]5(C)[C@H]4CC[C@]23C)NC(=O)CCCC(=O)N[C@@H]2CC[C@@]3(C)[C@@H](C2)C[C@H](O)[C@@H]2[C@@H]3CC[C@]3(C)[C@@H]1CC[C@@H]23

>  <Tested on>
UniProtKB Q9Y6L6

>  <Result>
Not Active

$$$$
>  <Smiles data>
C[C@H](CCC(=O)O[C@@H]1CC[C@@]2(C)[C@@H](C1)C[C@H](O)[C@@H]1[C@@H]2CC[C@]2(C)[C@@H]([C@H](C)CCC(=O)NCCS(=O)(=O)O)CC[C@@H]12)[C@H]1CC[C@H]2[C@@H]3[C@@H](O)C[C@@H]4C[C@H](O)CC[C@]4(C)[C@H]3CC[C@]12C

>  <Tested on>
UniProtKB Q9Y6L6

>  <Result>
Not Active

$$$$
>  <Smiles data>
C[C@H](CCC(=O)NCCS(=O)(=O)O)[C@H]1CC[C@H]2[C@@H]3[C@@H](O)C[C@@H]4C[C@H](OCc5cn([C@@H]6CC[C@@]7(C)[C@@H](C6)C[C@H](O)[C@@H]6[C@@H]7CC[C@]7(C)[C@@H]([C@H](C)CCC(=O)NCCS(=O)(=O)O)CC[C@@H]67)nn5)CC[C@]4(C)[C@H]3CC[C@]12C

>  <Tested on>
UniProtKB Q9Y6L6

>  <Result>
Not Active

$$$$
